Hello, the source for this data is patent US11352349B2, in case you need it.

Molecular target: human topo II (Homo sapiens, UniProt P11388)
Construct: purchased Inspiralis, Norwich, UK
Sequence (P11388 whole entry): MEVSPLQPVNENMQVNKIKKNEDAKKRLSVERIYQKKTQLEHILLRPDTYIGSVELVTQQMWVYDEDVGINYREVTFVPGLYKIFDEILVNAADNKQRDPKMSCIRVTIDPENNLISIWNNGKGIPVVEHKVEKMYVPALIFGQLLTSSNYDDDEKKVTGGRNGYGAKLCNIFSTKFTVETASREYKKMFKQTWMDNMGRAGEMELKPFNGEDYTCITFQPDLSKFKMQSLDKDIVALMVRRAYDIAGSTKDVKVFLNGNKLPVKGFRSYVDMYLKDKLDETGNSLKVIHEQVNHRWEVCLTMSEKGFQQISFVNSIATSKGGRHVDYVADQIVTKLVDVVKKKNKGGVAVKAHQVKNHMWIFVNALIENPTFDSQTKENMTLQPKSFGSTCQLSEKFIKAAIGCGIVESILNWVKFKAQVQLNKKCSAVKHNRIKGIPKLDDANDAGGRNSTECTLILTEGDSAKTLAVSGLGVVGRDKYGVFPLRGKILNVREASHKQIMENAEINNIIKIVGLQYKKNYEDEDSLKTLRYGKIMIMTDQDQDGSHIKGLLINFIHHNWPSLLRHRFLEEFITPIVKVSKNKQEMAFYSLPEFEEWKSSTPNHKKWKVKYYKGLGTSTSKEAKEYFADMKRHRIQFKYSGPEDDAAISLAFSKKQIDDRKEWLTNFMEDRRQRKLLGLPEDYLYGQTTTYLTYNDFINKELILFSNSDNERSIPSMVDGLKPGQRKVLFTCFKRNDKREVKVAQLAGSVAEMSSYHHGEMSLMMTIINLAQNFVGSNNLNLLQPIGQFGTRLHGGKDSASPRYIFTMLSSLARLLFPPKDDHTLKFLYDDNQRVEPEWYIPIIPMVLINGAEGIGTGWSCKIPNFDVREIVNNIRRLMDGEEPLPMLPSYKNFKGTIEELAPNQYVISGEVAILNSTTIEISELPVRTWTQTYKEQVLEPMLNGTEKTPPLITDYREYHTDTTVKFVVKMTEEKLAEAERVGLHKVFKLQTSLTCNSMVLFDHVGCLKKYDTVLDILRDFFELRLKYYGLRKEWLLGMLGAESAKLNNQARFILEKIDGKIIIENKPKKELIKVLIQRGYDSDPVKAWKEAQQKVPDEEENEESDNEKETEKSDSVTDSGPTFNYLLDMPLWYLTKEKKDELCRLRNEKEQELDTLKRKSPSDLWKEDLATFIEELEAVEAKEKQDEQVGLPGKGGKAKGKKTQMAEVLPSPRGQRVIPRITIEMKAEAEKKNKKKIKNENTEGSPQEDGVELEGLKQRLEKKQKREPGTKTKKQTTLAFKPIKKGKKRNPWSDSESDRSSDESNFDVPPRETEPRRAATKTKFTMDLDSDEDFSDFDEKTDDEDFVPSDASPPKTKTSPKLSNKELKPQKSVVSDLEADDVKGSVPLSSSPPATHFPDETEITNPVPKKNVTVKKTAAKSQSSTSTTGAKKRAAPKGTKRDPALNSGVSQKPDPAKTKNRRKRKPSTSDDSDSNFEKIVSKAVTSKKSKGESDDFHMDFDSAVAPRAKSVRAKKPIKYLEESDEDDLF
Assay: Topoisomerase II (alpha) decatenation assay
Assay type: biochemical
Conditions: activity remaining at 100 μM compound; read-out: hTopoll (% activity remaining at 100 μM)
Task for the reader: assign each of the following molecules its reported remaining activity at 100 µM.
Give bare numbers, in %.

See these solved cases before continuing.
# mol, target.or.test.system, endpoint.result
data = [
    ("COc1ccc2ncc(F)c(CC[C@H]3OC[C@H](NCc4cc5c(cn4)OCCC5)CO3)c2n1", "human topo II (Homo sapiens, UniProt P11388)", 79.8),
    ("COc1ccc2nccc(CC[C@H]3OC[C@H](NCc4ccc5c(c4)NC(=O)CO5)CO3)c2c1", "human topo II (Homo sapiens, UniProt P11388)", 93),
    ("COc1ccc2nccc(CC[C@H]3OC[C@H](NCc4ccc(F)c(Cl)c4)CO3)c2c1", "human topo II (Homo sapiens, UniProt P11388)", 97.7),
    ("COc1ccc2nccc(CC[C@H]3OC[C@H](NCc4ccc(Cl)c(Cl)c4)CO3)c2c1", "human topo II (Homo sapiens, UniProt P11388)", 93.2),
    ("COc1ccc2ncc(F)c(CC[C@H]3OC[C@H](NCc4ccc5c(n4)NC(=O)CO5)CO3)c2n1", "human topo II (Homo sapiens, UniProt P11388)", 83.1),
]

Record remaining activity at 100 µM per entry; entries follow.
1. COc1ccc2nccc(CC[C@H]3OC[C@H](NCc4cc5c(cn4)OCCO5)CO3)c2c1
2. COc1ccc2nccc(CC[C@H]3OC[C@H](NCc4ccc5c(n4)NC(=O)CS5)CO3)c2c1
3. COc1ccc2nccc(CC[C@H]3OC[C@H](NCc4ccc5c(n4)NC(=O)CO5)CO3)c2c1
4. COc1ccc2nccc(CC[C@H]3OC[C@H](NCc4ccc5c(c4)OCCO5)CO3)c2c1

A)
1: 95.1; 2: 91.1; 3: 99.1; 4: 84.2

Record remaining activity at 100 µM per entry; entries follow.
1. COc1ccc2nccc(CC[C@H]3OC[C@H](NCc4ccc(Cl)cc4)CO3)c2c1
2. COc1ccc2nccc(CC[C@H]3OC[C@H](NC/C=C/c4ccccc4)CO3)c2c1
3. COc1ccc2nccc(CC[C@H]3OC[C@H](NCc4ccc(C#N)cc4)CO3)c2c1
4. COc1ccc2ncc(F)c(CC[C@H]3OC[C@H](NCc4ccc5c(c4)OCCO5)CO3)c2n1
5. COc1ccc2ncc(=O)n(CC[C@H]3OC[C@H](NCc4ccc5c(c4)OCCO5)CO3)c2c1

A)
[97.8, 93.7, 88.4, 55, 97.5]

###

Test system: S. aureus ATCC 29213
Test: MIC by broth microdilution (CLSI), quality control strain S. aureus ATCC 29213
Assay type: cell-based, Staphylococcus aureus
Details: Staphylococcus aureus, ATCC29213, S. aureus ATCC 29213; multiple values when multiple MIC assays were conducted
measurement.label: MIC

See these solved cases before continuing.
# molecule, MIC
records = [
    ("COc1ccc2nccc(CC[C@H]3OC[C@H](NCc4ccccc4F)CO3)c2c1", "> 64 µg/mL"),
    ("COc1ccc2nccc(/C=C/[C@H]3OC[C@H](NCc4ccc(Cl)c(Cl)c4)CO3)c2c1", "≤ 0.25 µg/mL"),
    ("COc1ccc2ncc(=O)n(CC(O)[C@H]3OC[C@H](NCc4ccc5c(n4)NC(=O)CO5)CO3)c2c1 (relative stereo)", "4 µg/mL"),
]

Record MIC per entry; entries follow.
1. COc1ccc2nccc(CC[C@H]3OC[C@H](NCc4ccccc4)CO3)c2c1
2. COc1ccc2ncc(F)c(CC[C@H]3OC[C@H](NCc4ccc5c(c4)OCCO5)CO3)c2n1
3. COc1ccc2nccc(CC[C@H]3OC[C@H](NCc4cccnc4)CO3)c2c1
4. COc1ccc2nccc(CC[C@H]3OC[C@H](NCc4ccsc4)CO3)c2c1

A)
1. > 64 µg/mL
2. ≤ 0.25 µg/mL
3. > 64 µg/mL
4. > 64 µg/mL

Q) GET /values?readout=MIC&system=S. aureus ATCC 29213&item= COc1ccc2nccc(CC[C@H]3OC[C@H](NCc4ccc(F)cc4)CO3)c2c1
A) > 64 µg/mL

###

Task for the reader: assign each of the following compounds its reported IC50.
Biological target: Staphylococcus aureus gyrase (Staphylococcus aureus, UniProt P0A0K8+P20831)
Construct: purchased Inspiralis, Norwich, UK
Sequence (P20831 whole entry): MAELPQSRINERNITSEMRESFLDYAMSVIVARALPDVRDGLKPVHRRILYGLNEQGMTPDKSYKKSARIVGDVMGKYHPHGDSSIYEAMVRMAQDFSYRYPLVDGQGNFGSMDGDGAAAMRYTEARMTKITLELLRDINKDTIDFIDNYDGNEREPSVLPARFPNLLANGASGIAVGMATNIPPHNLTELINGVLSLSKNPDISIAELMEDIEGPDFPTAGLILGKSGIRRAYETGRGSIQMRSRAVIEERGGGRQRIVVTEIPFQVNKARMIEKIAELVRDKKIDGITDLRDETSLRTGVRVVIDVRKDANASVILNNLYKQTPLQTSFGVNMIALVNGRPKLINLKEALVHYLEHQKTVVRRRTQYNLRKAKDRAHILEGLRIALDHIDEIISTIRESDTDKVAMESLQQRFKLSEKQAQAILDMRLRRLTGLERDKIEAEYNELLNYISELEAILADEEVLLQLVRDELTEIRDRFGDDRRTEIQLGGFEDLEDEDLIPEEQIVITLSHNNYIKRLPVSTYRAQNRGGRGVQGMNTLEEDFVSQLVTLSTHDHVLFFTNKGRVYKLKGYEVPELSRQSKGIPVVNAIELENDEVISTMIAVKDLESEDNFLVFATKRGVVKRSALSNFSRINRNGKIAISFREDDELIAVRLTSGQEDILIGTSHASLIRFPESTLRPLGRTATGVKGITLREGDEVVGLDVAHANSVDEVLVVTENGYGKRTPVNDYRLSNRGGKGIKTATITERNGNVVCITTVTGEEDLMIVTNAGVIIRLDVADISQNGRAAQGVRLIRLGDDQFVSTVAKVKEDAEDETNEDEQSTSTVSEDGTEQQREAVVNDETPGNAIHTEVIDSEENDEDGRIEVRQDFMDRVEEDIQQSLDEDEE
Sequence (P0A0K8 whole entry): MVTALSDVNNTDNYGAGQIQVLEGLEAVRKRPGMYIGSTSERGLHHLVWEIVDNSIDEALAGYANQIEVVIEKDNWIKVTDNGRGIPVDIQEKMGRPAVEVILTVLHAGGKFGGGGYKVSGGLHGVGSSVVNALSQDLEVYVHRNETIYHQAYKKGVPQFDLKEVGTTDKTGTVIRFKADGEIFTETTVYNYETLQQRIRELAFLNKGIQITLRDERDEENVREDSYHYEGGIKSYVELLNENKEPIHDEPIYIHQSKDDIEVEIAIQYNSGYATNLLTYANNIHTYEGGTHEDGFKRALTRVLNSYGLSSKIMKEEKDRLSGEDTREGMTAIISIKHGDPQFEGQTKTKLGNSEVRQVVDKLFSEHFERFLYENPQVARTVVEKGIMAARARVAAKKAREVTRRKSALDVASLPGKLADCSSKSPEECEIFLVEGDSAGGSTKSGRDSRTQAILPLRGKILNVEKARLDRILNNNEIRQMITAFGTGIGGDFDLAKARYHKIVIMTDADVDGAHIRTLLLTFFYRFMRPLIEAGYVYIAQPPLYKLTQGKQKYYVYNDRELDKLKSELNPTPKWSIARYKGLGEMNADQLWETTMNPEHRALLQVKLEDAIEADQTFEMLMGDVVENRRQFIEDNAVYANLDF
Assay: Staphylococcus aureus gyrase supercoiling assay
Assay type: biochemical
Conditions: S. aureus DNA gyrase supercoiling; read-out: Gyrase IC50
Procedure: A subset of analogs was used to assess the degree of inhibition of DNA gyrase or TopoIV (Inspiralis, Norwich, UK), both to establish the mechanism of action and to evaluate the relative balance of inhibitory activities (Table 1). […] In all experiments, the activity of the enzymes was determined prior to the testing of the compounds and 1 unit (U) was defined as the amount of enzyme required to just fully supercoil, relax or decatenate the substrate (see explanation of gels). […]
Units required after the number.

See these solved cases before continuing.
# compound, target.or.test.system, IC50
measured = [
    ("COc1ccc2ncc(F)c(C(O)C[C@H]3OC[C@H](NCc4cc5c(cn4)OCCC5)CO3)c2c1 (stereo partly shown)", "Staphylococcus aureus gyrase (Staphylococcus aureus, UniProt P0A0K8+P20831)", "130 nM"),
    ("COc1ccc2ncc(F)c(CC[C@H]3OC[C@H](NCc4ccc5c(n4)NC(=O)CS5)CO3)c2n1", "Staphylococcus aureus gyrase (Staphylococcus aureus, UniProt P0A0K8+P20831)", "170 nM"),
]

Record IC50 per entry; entries follow.
1. COc1ccc2ncc(F)c(CC[C@H]3OC[C@H](NCc4cc5c(cn4)OCCC5)CO3)c2n1
2. COc1ccc2nccc(CC[C@H]3OC[C@H](NCc4cc5c(cn4)OCCC5)CO3)c2c1
3. COc1ccc2ncc(F)c(CC[C@H]3OC[C@H](NCc4cc5c(cn4)OCCO5)CO3)c2n1
4. COc1ccc2nccc(CC[C@H]3OC[C@H](NCc4ccc5c(n4)NC(=O)CO5)CO3)c2c1

A)
1: 160 nM; 2: 330 nM; 3: 420 nM; 4: 780 nM

Q) GET /values?readout=IC50&system=Staphylococcus aureus gyrase (Staphylococcus aureus, UniProt P0A0K8+P20831)&item= COc1ccc2nccc(CC[C@H]3OC[C@H](NCc4ccc(Cl)c(Cl)c4)CO3)c2c1
A) 280 nM

###

Test system: S. aureus ATCC 29213
Assay: MIC by broth microdilution (CLSI), quality control strain S. aureus ATCC 29213
Type: cell-based, Staphylococcus aureus
Settings: Staphylococcus aureus, ATCC29213, S. aureus ATCC 29213; multiple values when multiple MIC assays were conducted
measurement.label: MIC (µg/mL)
Numbers only, in µg/mL.

Record MIC per entry; entries follow.
1. COc1ccc2ncc(F)c(C(O)C[C@H]3OC[C@H](NCc4cc5c(cn4)OCCO5)CO3)c2n1 (some centres unmarked)
2. COc1ccc2ncc(=O)n(CC[C@H]3OC[C@H](NCc4ccc(Cl)c(Cl)c4)CO3)c2c1
3. COc1ccc2nccc(CC[C@H]3OC[C@H](NCc4ccc5c(n4)NC(=O)CO5)CO3)c2c1
4. COc1ccc(CN[C@H]2CO[C@H](CCc3ccnc4ccc(OC)cc34)OC2)cc1
5. COc1ccc2ncc(=O)n(CC[C@H]3OC[C@H](NCc4ccc5c(c4)OCCO5)CO3)c2c1

A)
1: 0.5; 2: 4; 3: 0.5; 4: 4; 5: 4
